Recorded values, source patent US10858364B2.

- ASSAY_TARGET: JAK3 (Homo sapiens (Human), UniProt P52333)
- Sequence (P52333 whole entry): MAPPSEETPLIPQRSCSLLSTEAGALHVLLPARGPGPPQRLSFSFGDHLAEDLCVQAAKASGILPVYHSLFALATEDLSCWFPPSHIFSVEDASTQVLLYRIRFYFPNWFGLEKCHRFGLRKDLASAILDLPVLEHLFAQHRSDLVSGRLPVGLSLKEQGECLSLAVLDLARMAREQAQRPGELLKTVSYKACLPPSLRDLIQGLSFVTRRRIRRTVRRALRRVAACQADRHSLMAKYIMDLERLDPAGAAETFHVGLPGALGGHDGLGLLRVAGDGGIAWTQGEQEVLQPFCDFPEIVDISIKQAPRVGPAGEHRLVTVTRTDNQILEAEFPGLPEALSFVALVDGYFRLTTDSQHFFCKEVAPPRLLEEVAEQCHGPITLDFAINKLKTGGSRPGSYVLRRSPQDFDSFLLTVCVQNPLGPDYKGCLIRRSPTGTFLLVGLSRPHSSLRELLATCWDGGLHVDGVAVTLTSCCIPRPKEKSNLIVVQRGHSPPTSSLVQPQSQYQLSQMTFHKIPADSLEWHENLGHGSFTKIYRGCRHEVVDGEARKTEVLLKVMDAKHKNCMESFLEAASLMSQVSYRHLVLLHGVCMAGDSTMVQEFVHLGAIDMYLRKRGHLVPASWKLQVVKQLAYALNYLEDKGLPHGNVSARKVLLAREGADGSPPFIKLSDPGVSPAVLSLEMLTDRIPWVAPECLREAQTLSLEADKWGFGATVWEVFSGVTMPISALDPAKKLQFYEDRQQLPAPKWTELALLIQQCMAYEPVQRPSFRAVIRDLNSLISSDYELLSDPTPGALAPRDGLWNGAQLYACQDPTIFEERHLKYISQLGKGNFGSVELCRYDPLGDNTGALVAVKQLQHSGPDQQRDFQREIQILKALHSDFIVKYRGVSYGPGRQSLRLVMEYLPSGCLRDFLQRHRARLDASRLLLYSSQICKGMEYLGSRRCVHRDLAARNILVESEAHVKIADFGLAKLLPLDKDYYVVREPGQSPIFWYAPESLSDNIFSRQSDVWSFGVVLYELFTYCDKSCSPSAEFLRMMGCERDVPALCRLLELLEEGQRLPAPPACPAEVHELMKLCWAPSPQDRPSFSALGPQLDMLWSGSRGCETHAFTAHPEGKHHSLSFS
READOUT_NAME: IC50

[[record]]
smiles_representation = "CC#CC(=O)NCCCC(=O)c1nc(-c2ccc(C(=O)Nc3ccccn3)cc2)c2c(N)nccn12"
readout_name = "IC50"
value_observed = "> 10 µM"


----------
- ASSAY_TARGET: BTK (Homo sapiens (Human))
- ASSAY_PROCEDURE: BTK target occupancy ELISA in Ramos B cells
- Format: cell-based
- SETTINGS: 2h incubation
pIC50: −log10 of the molar value.
READOUT_NAME: pIC50

[[record]]
smiles_representation = "CC#CC(=O)NCCCC(=O)c1nc(-c2ccc(C(=O)Nc3ccccn3)cc2)c2c(N)nccn12"
readout_name = "pIC50"
value_observed = 7.41


----------
- ASSAY_TARGET: LIMK1 (Homo sapiens (Human), UniProt P53667)
pKd: −log10 of the molar value.
READOUT_NAME: pKd

[[record]]
molecule = "CC#CC(=O)NCCCC(=O)c1nc(-c2ccc(C(=O)Nc3ccccn3)cc2)c2c(N)nccn12 [Formula (I)]"
readout_name = "pKd"
value_observed = 6.40


----------
IC50 for assorted compounds
- ASSAY_TARGET: BTK (Homo sapiens (Human))
- ASSAY_PROCEDURE: BTK enzyme activity, IMAP assay
- Assay type: biochemical
- SETTINGS: 60 min pre-incubation, 5 μM ATP
READOUT_NAME: IC50 (nM)

[[record]]
smiles_representation = "CC#CC(=O)NCCCC(=O)c1nc(-c2ccc(C(=O)Nc3ccccn3)cc2)c2c(N)nccn12"
assay_target = "BTK (Homo sapiens (Human))"
reading_unit = "nM"
value_observed = 5

[[record]]
smiles_representation = "CC#CC(=O)NCCCC(=O)c1nc(-c2ccc(C(=O)Nc3ccccn3)c(OC)c2)c2c(N)nccn12"
assay_target = "BTK (Homo sapiens (Human))"
reading_unit = "nM"
value_observed = 9.3


----------
- ASSAY_TARGET: ERBB4 (Homo sapiens (Human), UniProt Q15303)
- Sequence (Q15303 26-1308): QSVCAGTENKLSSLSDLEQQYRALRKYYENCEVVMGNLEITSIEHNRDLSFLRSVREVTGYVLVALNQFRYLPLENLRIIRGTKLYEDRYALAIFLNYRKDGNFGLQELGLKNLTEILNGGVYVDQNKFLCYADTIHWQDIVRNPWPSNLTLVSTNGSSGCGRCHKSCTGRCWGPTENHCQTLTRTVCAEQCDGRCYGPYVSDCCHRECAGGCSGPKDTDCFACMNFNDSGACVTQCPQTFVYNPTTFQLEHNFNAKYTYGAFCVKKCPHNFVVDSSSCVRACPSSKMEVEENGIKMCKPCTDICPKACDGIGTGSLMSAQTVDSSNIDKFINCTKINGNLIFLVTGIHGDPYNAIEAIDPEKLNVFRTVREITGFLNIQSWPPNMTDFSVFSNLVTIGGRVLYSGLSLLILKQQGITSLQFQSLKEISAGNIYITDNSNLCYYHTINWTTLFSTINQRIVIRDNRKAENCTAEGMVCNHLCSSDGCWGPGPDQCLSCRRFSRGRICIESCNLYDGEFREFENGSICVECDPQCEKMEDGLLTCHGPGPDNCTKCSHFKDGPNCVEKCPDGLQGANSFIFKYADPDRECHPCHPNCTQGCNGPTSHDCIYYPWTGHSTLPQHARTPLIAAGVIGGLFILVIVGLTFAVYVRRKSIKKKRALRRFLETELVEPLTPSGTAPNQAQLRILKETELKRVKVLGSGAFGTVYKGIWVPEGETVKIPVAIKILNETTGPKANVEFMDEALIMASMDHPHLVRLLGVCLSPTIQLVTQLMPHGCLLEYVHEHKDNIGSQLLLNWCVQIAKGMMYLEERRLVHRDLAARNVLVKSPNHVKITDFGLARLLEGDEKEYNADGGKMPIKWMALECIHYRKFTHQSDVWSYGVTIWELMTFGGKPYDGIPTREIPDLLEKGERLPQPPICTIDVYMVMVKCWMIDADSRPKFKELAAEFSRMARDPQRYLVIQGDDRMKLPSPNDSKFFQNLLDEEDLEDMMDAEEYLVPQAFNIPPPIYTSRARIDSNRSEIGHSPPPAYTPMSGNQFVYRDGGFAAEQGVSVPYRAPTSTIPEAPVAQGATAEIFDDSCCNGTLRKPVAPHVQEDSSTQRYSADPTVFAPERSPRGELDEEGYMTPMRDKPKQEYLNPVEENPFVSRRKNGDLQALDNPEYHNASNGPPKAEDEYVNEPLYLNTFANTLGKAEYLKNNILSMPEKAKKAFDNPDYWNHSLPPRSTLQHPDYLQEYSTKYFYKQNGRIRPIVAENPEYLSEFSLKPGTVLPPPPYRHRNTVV
READOUT_NAME: Kd (nM)

[[record]]
smiles_representation = "CC#CC(=O)NCCCC(=O)c1nc(-c2ccc(C(=O)Nc3ccccn3)cc2)c2c(N)nccn12"
readout_name = "Kd"
value_observed = 970


----------
- ASSAY_PROCEDURE: Clinical pharmacokinetics of acalabrutinib and its major metabolite
- Type: in vivo, human
- SETTINGS: human, in vivo; single oral dose of 100 mg acalabrutinib; read-out: median terminal elimination half-life (t½) (converted)
READOUT_NAME: half-life (h)

[[record]]
molecule = "CC#CC(=O)NCCCC(=O)c1nc(-c2ccc(C(=O)Nc3ccccn3)cc2)c2c(N)nccn12 [Formula (I)]"
value_observed = 6.9

[[record]]
molecule = "CC#CC(=O)N1CCC[C@H]1c1nc(-c2ccc(C(=O)Nc3ccccn3)cc2)c2c(N)nccn12 [acalabrutinib, reference compound]"
value_observed = 0.9


----------
- ASSAY_TARGET: BTK (Homo sapiens (Human), UniProt Q06187)
- Sequence (Q06187 whole entry): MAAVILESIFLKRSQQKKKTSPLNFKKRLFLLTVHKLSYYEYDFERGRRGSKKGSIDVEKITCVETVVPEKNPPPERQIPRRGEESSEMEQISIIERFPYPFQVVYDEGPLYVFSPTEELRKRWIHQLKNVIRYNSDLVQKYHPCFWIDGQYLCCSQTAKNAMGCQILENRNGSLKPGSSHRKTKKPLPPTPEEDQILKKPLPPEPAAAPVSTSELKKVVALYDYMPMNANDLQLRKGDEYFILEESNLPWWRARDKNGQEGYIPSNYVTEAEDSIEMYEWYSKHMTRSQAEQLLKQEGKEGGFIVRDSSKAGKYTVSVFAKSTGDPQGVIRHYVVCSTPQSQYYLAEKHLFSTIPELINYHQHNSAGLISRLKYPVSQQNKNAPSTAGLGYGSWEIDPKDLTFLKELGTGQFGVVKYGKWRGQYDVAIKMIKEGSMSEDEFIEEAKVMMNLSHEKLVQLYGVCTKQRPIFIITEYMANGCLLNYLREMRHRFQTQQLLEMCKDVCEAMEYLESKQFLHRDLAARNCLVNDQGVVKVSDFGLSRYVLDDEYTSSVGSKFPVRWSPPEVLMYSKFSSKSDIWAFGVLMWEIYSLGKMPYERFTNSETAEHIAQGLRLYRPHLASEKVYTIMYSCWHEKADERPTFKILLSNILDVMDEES
- ASSAY_PROCEDURE: BTK IMAP with ATP competition and variable pre-incubation
- Format: biochemical
- SETTINGS: 25 μM ATP; 60 minutes pre-incubation
- Protocol: BTK enzyme activity with ATP competition was measured using the IMAP (immobilized metal ion affinity-based fluorescence polarization) assay. […] After 60 min incubation at room temperature in the dark the FP signal was read. Fluorescence at 535 nm was measured using parallel and perpendicular filters to determine differences in rotation due to binding of the phosphorylated substrate peptide to the beads. […] IC50 values were determined by curve fitting of the experimental results using Dotmatics. […]
pIC50: −log10 of the molar value.
READOUT_NAME: pIC50

[[record]]
compound = "CC#CC(=O)NCCCC(=O)c1nc(-c2ccc(C(=O)Nc3ccccn3)cc2)c2c(N)nccn12 [Formula (I)]"
readout_name = "pIC50"
value_observed = 8.02


----------
- ASSAY_TARGET: TEC (Homo sapiens (Human))
READOUT_NAME: IC50 (nM)

[[record]]
smiles_representation = "CC#CC(=O)NCCCC(=O)c1nc(-c2ccc(C(=O)Nc3ccccn3)cc2)c2c(N)nccn12"
value_observed = 345


----------
- ASSAY_TARGET: TEC (Homo sapiens (Human), UniProt P42680)
- Sequence (P42680 whole entry): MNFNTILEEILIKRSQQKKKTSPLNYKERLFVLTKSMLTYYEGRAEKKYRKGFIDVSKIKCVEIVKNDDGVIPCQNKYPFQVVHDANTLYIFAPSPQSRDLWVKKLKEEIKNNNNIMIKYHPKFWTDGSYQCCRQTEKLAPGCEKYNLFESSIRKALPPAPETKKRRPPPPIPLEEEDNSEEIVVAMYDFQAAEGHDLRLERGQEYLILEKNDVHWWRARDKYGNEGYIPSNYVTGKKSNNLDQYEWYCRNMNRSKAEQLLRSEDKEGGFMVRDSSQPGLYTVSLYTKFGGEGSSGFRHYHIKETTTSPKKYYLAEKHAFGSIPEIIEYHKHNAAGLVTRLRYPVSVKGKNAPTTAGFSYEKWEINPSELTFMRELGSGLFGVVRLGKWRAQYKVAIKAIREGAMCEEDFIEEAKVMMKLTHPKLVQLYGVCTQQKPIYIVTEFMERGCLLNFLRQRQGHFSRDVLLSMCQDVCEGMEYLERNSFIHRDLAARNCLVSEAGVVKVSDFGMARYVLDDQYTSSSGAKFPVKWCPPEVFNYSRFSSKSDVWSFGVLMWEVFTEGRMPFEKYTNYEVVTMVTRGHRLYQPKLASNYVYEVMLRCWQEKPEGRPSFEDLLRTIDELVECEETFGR
pKd: −log10 of the molar value.
READOUT_NAME: pKd

[[record]]
smiles_representation = "CC#CC(=O)NCCCC(=O)c1nc(-c2ccc(C(=O)Nc3ccccn3)cc2)c2c(N)nccn12"
value_observed = 7.40


----------
- ASSAY_TARGET: UniProt:Q06187
- ASSAY_PROCEDURE: BTK IMAP with ATP competition and variable pre-incubation
- Assay type: biochemical
- SETTINGS: 5 μM ATP; 0 minute pre-incubation
pIC50: −log10 of the molar value.
READOUT_NAME: pIC50

[[record]]
smiles_representation = "CC#CC(=O)NCCCC(=O)c1nc(-c2ccc(C(=O)Nc3ccccn3)cc2)c2c(N)nccn12"
value_observed = 7.56


----------
- ASSAY_TARGET: BTK (Homo sapiens (Human))
- ASSAY_PROCEDURE: BTK IMAP with ATP competition and variable pre-incubation
- Format: biochemical
- SETTINGS: 25 μM ATP; 0 minute pre-incubation
READOUT_NAME: IC50 (nM)

[[record]]
smiles_representation = "CC#CC(=O)NCCCC(=O)c1nc(-c2ccc(C(=O)Nc3ccccn3)cc2)c2c(N)nccn12"
readout_name = "IC50"
value_observed = 72.4


----------
- ASSAY_TARGET: BTK (Homo sapiens (Human))
- ASSAY_PROCEDURE: BTK IMAP with ATP competition and variable pre-incubation
- Type: biochemical
- SETTINGS: 100 μM ATP; 30 minutes pre-incubation
READOUT_NAME: IC50 (nM)

[[record]]
smiles_representation = "CC#CC(=O)NCCCC(=O)c1nc(-c2ccc(C(=O)Nc3ccccn3)cc2)c2c(N)nccn12"
readout_name = "IC50"
reading_unit = "nM"
value_observed = 23.7


----------
- ASSAY_TARGET: UniProt:P04626
- Sequence (P04626 23-1255): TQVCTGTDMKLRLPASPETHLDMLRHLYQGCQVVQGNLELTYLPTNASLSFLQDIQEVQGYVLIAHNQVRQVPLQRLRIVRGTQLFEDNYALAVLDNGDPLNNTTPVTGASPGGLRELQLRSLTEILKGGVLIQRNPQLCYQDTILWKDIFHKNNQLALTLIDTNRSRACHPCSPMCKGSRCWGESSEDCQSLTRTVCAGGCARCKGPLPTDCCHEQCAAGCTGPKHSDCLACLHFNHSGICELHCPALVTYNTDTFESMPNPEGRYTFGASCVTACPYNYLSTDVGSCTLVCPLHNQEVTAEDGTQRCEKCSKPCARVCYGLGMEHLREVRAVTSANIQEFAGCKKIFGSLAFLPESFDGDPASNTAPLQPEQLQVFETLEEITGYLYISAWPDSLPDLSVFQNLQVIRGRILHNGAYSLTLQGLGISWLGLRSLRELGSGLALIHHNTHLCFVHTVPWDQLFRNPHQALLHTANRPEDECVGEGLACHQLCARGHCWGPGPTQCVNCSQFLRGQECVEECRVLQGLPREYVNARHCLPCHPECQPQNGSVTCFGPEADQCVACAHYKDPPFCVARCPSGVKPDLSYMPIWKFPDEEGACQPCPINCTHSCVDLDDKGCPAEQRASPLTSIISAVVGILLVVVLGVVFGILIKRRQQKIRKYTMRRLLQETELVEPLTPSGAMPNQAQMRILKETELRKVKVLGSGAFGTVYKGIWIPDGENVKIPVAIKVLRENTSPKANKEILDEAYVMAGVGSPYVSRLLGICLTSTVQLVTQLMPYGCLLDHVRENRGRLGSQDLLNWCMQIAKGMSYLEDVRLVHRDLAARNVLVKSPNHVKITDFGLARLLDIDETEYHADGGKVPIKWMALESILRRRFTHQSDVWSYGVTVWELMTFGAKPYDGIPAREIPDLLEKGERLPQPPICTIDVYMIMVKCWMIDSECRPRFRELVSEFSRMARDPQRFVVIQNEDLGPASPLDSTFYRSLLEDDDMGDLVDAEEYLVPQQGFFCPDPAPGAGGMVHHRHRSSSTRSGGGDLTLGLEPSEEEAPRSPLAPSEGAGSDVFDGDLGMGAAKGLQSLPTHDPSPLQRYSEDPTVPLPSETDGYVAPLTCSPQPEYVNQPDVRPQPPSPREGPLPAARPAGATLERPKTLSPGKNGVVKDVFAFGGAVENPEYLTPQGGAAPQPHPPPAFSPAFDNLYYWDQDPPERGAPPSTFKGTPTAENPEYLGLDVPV
pKd: −log10 of the molar value.
READOUT_NAME: pKd

[[record]]
compound = "CC#CC(=O)NCCCC(=O)c1nc(-c2ccc(C(=O)Nc3ccccn3)cc2)c2c(N)nccn12 [Formula (I)]"
value_observed = 6.92


----------
- ASSAY_TARGET: BTK (Homo sapiens (Human))
- ASSAY_PROCEDURE: BTK IMAP with ATP competition and variable pre-incubation
- Type: biochemical
- SETTINGS: 100 μM ATP; 0 minute pre-incubation
- Description: BTK enzyme activity with ATP competition was measured using the IMAP (immobilized metal ion affinity-based fluorescence polarization) assay. […] After 60 min incubation at room temperature in the dark the FP signal was read. Fluorescence at 535 nm was measured using parallel and perpendicular filters to determine differences in rotation due to binding of the phosphorylated substrate peptide to the beads. […] IC50 values were determined by curve fitting of the experimental results using Dotmatics. […]
READOUT_NAME: IC50 (nM)

[[record]]
compound = "CC#CC(=O)NCCCC(=O)c1nc(-c2ccc(C(=O)Nc3ccccn3)cc2)c2c(N)nccn12 [Formula (I)]"
value_observed = 101


----------
- ASSAY_TARGET: BTK (Homo sapiens (Human))
- ASSAY_PROCEDURE: BTK IMAP with ATP competition and variable pre-incubation
- Assay type: biochemical
- SETTINGS: 25 μM ATP; 30 minutes pre-incubation
pIC50: −log10 of the molar value.
READOUT_NAME: pIC50

[[record]]
smiles_representation = "CC#CC(=O)NCCCC(=O)c1nc(-c2ccc(C(=O)Nc3ccccn3)cc2)c2c(N)nccn12"
readout_name = "pIC50"
value_observed = 7.74

